- target desc: MCR-1 (Homo sapiens)
- Construct: expressed in transfected cells; host or cells: HEK 293
- Sequence (Q01726 whole entry): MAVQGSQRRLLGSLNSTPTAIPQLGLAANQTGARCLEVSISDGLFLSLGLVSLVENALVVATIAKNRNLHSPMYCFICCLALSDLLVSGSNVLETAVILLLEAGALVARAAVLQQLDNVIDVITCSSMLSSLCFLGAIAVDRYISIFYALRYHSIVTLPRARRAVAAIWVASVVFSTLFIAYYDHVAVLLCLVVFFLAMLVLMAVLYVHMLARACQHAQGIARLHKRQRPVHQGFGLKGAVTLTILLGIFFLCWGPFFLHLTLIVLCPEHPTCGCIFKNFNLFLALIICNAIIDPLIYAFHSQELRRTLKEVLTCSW
- protocol: Melanocortin receptor binding assay, competition with 125I-HP 467, HEK 293 cells expressing hMCR-1
- condition description: inhibition of binding of 125I-HP 467, HEK 293 cells expressing MCR-1; read-out: MC-1 IC50
experimental endpoint: IC50

>>> df
                                    compound  observed
 0  NCC(CCCCN1Cc2ccccc2C(CNCCc2ccc(O)cc2)C1c1cc(C(F)(F)F)cc(C(F)(F)F)c1)NCc1ccc(-c2ccccc2)cc1 (centres unmarked)   4770 nM
 1  CCOc1ccc(C2C(CNCCc3ccccc3)c3ccccc3CN2CCCC(CN)NCc2ccccc2)cc1 (centres unmarked)    170 nM
 2  CCOc1ccc(CCNCC2c3ccccc3CN(CCCCC(CN)NCc3ccc(Br)cc3)C2c2cc(C(F)(F)F)cc(C(F)(F)F)c2)cc1 (centres unmarked)   7440 nM
 3  CCNc1ccc(C2C(CN)c3ccccc3CN2CCCC(CN)NCCCCN2CCCCC2)cc1 (centres unmarked)     73 nM
 4  CCOc1ccc(C2C(CN)c3ccccc3CN2CCCC(CN)NCCC2CCCCC2)cc1 (centres unmarked)    460 nM
 5  CCCCNc1ccc(C2C(CNCCc3ccccc3)c3ccccc3CN2CCCC(CN)NCC)cc1 (centres unmarked)    190 nM
 6  CCc1ccc(C2C(CO)c3ccccc3CN2CCCC(CN)NCCC2CCCCC2)cc1 (centres unmarked)   4800 nM
 7  CNCCNC(CN)CCCCN1Cc2ccccc2C(CNCCc2ccccc2)C1c1ccc(-c2ccccc2)cc1 (centres unmarked)    440 nM
 8  CCCCNc1ccc(C2C(CNC3CCCCC3)c3ccccc3CN2CCCC(CN)NCc2ccc(Cl)cc2)cc1 (centres unmarked)    100 nM
 9  CCCCNc1ccc(C2C(CNCCc3ccccc3)c3ccccc3CN2CCCC(CN)NCc2ccc(Cl)cc2)cc1 (centres unmarked)     80 nM
10  CCNc1ccc(C2C(CNCCc3ccccc3)c3ccccc3CN2CCCC(CN)NCCc2ccc3ccccc3c2)cc1 (centres unmarked)    160 nM
11  CCNc1ccc(C2C(CNCCc3ccccc3)c3ccccc3CN2CCCC(CN)NCC2CC2CNCCc2ccccc2)cc1 (centres unmarked)    208 nM
12  CCNc1ccc(C2C(CNCCc3ccccc3)c3ccccc3CN2CCCC(CN)NCCOCCNCc2ccccc2)cc1 (centres unmarked)     55 nM
13  CCNc1ccc(C2C(CNCCc3ccccc3)c3ccccc3CN2CCCC(CN)NCc2ccccc2CN(CC)CC)cc1 (centres unmarked)     70 nM
14  CCCCCc1ccc(C2C(CO)c3ccccc3CN2CCCC(CN)NCCC2CCCCC2)cc1 (centres unmarked)   6210 nM
15  COc1cccc(CCNCC2c3ccccc3CN(CCCCC(CN)NCc3ccc(Br)cc3)C2c2cc(C(F)(F)F)cc(C(F)(F)F)c2)c1 (centres unmarked)   7470 nM
16  NCC(CCCCN1Cc2ccccc2C(CNCCc2ccc(Cl)cc2)C1c1cc(C(F)(F)F)cc(C(F)(F)F)c1)NCc1ccccc1 (centres unmarked)   5900 nM
17  CCNc1ccc(C2C(CNCCc3ccccc3)c3ccccc3CN2CCCC(CN)NCCCCCNCc2ccccc2)cc1 (centres unmarked)     76 nM
18  CCNc1ccc(C2C(CNCCc3ccccc3)c3ccccc3CN2CCCC(CN)NCC2CC2CN(CC)CC)cc1 (centres unmarked)     63 nM
19  CCCCCc1ccc(C2C(CNCCc3ccccc3)c3ccccc3CN2CCCC(CN)NCCc2ccccc2)cc1 (centres unmarked)    500 nM
20  COc1cccc(CCNCC2c3ccccc3CN(CCCCC(CN)NCc3ccccc3)C2c2cc(C(F)(F)F)cc(C(F)(F)F)c2)c1 (centres unmarked)   3990 nM
21  CCOc1ccc(C2C(CNCCc3ccccc3)c3ccccc3CN2CCCCC(CN)NCc2ccccc2)cc1 (centres unmarked)    590 nM
22  CCCCOc1ccc(C2C(CO)c3ccccc3CN2CCCC(CN)NCCC2CCCCC2)cc1 (centres unmarked)   2390 nM
23  Cc1ccc(CNC(CN)CCCCN2Cc3ccccc3C(CNCCc3ccccc3)C2c2cc(C(F)(F)F)cc(C(F)(F)F)c2)cc1 (mixture of isomers)   3730 nM
24  CCNc1ccc(C2C(CNCCc3ccccc3)c3ccccc3CN2CCCC(CN)NCc2ccccc2CNCCc2ccccc2)cc1 (centres unmarked)    164 nM
25  CCNc1ccc(C2C(CNC3CCCCC3)c3ccccc3CN2CCCC(CN)NCC)cc1 (centres unmarked)    180 nM
26  CCNc1ccc(C2C(CN)c3ccccc3CN2CCCC(CN)NCc2ccc(Cl)cc2)cc1 (centres unmarked)    130 nM
27  CCNc1ccc(C2C(CNCCc3ccccc3)c3ccccc3CN2CCCC(CN)NCCOCCNC(C)C)cc1 (centres unmarked)     40 nM
28  CCCCNc1ccc(C2C(CNCCc3ccccc3)c3ccccc3CN2CCCC(CN)NC)cc1 (centres unmarked)    120 nM

----------
Item-by-item account of % Disp. of 125I-HP 467 (first of duplicate)
- target desc: MCR-1 (Homo sapiens)
- Construct: expressed in transfected cells; host or cells: HEK 293
- protocol: Melanocortin receptor binding assay, competition with 125I-HP 467, HEK 293 cells expressing hMCR-1
- condition description: 10 μM isoquinoline compound, HEK 293 cells expressing MCR-1, duplicate 1
experimental endpoint: % Disp. of 125I-HP 467 (first of duplicate)

In [3]: df
Out[3]:
                                   compound  observed
0  CNC(CN)CCCCN1Cc2ccccc2C(CNC2CCCCC2)C1c1cccc(F)c1 (stereo not shown) [TRG 2405-221]     65.2%
1  CNC(CN)CCCCN1Cc2ccccc2C(CNC2CCCCC2)C1c1ccsc1 (mixture of isomers) [TRG 2405-233]     53.6%
2  CCNc1ccc(C2C(CNC3CCCCC3)c3ccccc3CN2CCCCC(CN)NC)cc1 (stereo not shown) [TRG 2405-239]     86.6%
3  CNC(CN)CCCCN1Cc2ccccc2C(CNC2CCCCC2)C1c1ccc(F)c(F)c1 (mixture of isomers) [TRG 2405-207]       65%

----------
- target desc: MCR-4 (Homo sapiens)
- Construct: expressed in transfected cells; host or cells: HEK 293
- Sequence (P32245 whole entry): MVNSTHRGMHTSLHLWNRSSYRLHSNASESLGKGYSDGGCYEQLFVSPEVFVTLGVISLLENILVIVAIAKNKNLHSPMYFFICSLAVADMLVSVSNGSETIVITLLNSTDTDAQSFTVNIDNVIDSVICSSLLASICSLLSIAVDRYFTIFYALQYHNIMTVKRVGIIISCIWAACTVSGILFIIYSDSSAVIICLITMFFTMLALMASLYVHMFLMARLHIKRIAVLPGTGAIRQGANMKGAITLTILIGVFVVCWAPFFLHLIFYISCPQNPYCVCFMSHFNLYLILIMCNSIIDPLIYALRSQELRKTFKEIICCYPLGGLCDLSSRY
- protocol: Melanocortin receptor binding assay, competition with 125I-HP 467, HEK 293 cells expressing hMCR-4
- condition description: TRG 2414 library; inhibition of binding of 125I-HP 467, HEK 293 cells expressing MCR-4; read-out: MC-4 IC50
experimental endpoint: IC50 (µM)

In [3]: df
Out[3]:
                                   compound  experimental_endpoint  unit_tag  observed
0  NCC(CCCCN1Cc2ccccc2C(CNCc2ccccc2)C1c1ccccc1Br)NCCc1ccccc1 (stereo not drawn)                   IC50        µM      5.46
1  CCCOc1ccc(C2C(CNCc3ccccc3)c3ccccc3CN2CCCCC(CN)NCc2ccccc2)cc1 (stereo not drawn)                   IC50        µM      5.53
2  CCCOc1ccc(C2C(CNCc3ccccc3)c3ccccc3CN2CCCCC(N)CN)cc1 (stereo not drawn)                   IC50        µM      2.31
3  CCCOc1ccc(C2C(CNC3CCCCCC3)c3ccccc3CN2CCCCC(CN)NCC(C)c2ccc(CC(C)C)cc2)cc1 (stereo not drawn)                   IC50        µM        37
4  CCCOc1ccc(C2C(CNC3CCCCC3)c3ccccc3CN2CCCCC(CN)NCc2ccccc2)cc1 (stereo not drawn)                   IC50        µM      5.15
5  CCCOc1ccc(C2C(CNC3CCCCCC3)c3ccccc3CN2CCCCC(CN)NCc2ccccc2)cc1 (stereo not drawn)                   IC50        µM      4.07
6  COc1ccccc1CCNCC1c2ccccc2CN(CCCCC(CN)NCC(C)c2ccc(CC(C)C)cc2)C1c1ccccc1Br (stereo not drawn)                   IC50        µM      16.6
7  COc1ccc(CCNCC2c3ccccc3CN(CCCCC(N)CN)C2c2ccccc2Br)cc1 (stereo not drawn)                   IC50        µM      2.04
8  COc1ccccc1CCNCC1c2ccccc2CN(CCCCC(N)CN)C1c1ccccc1Br (stereo not drawn)                   IC50        µM      1.37

----------
Below are IC50 values measured for MCR-3 (Homo sapiens).
experimental endpoint: IC50 (µM)

                                   compound  reported_relation  observed
0  CNC(CN)CCCCN1Cc2ccccc2C(CN)C1c1ccc(Cl)cc1Cl (stereo not shown)                  =      0.28
1  CNC(CN)CCCCN1Cc2ccccc2C(CNC2CCCCC2)C1c1ccc(-c2ccccc2)cc1 (stereo not shown)                  =      7.45
2  CNC(CN)CCCCN1Cc2ccccc2C(CNC2CCCCC2)C1c1ccc2cccc(O)c2n1 (stereo not shown)                  >        10
3  CCNc1ccc(C2C(CNC3CCCCC3)c3ccccc3CN2CCCC(CN)NCCc2ccccc2)cc1 (stereo not shown)                  =      5.71
4  CNC(CN)CCCCN1Cc2ccccc2C(CNC2CCCCC2)C1c1ccc(C(F)(F)F)cc1 (stereo not shown)                  >        10
5  CNC(CN)CCCCN1Cc2ccccc2C(CNC2CCCCC2)C1c1ccc(Cl)cc1Cl (stereo not shown)                  =      2.24
6  CNC(CN)CCCCN1Cc2ccccc2C(CNC2CCCCC2)C1c1ccc(N(C)C)cc1 (stereo not shown)                  =      22.3
